measurement target: Phosphatidylinositol 4,5-bisphosphate 3-kinase catalytic subunit alpha isoform (Homo sapiens, UniProt P42336, H1047R)
Sequence (P42336 whole entry H1047R, canonical isoform): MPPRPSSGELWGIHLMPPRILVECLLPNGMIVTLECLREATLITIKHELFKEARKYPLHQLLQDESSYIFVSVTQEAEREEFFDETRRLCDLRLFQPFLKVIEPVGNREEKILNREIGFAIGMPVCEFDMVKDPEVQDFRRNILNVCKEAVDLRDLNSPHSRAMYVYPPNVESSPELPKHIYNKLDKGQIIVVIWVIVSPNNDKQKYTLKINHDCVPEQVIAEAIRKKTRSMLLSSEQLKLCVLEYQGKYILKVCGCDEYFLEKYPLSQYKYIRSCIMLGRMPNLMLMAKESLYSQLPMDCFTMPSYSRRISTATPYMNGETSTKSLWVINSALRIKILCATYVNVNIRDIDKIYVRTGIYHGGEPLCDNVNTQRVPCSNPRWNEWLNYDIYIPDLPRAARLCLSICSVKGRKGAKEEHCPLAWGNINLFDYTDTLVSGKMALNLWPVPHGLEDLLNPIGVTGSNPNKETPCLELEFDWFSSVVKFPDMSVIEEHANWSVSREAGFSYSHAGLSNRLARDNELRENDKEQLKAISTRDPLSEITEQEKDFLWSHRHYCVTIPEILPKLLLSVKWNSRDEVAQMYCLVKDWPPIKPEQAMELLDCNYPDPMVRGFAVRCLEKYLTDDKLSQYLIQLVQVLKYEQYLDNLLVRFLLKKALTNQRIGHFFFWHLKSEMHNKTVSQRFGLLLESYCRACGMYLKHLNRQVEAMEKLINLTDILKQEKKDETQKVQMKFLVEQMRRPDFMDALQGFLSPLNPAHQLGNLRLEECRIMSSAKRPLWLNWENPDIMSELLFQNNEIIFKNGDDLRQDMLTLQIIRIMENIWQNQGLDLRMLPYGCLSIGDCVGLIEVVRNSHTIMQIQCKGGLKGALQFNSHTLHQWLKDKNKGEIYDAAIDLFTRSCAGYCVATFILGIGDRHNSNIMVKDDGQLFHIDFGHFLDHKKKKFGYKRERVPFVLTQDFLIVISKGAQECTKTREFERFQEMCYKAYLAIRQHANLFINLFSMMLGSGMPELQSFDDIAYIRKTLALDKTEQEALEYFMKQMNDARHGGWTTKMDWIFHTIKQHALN
experimental protocol: Inhibition of PI3K […] H1047R mutant-mediated PKB phosphorylation at Thr308 in human HCT116 cells after 15 mins by immunoblot analysis
Assay type: cell-based, HCT-116
assay metric: IC50 (nM)
Answers are plain numbers, in nM.

Give recorded IC50. "Cc1ccc([N+](=O)[O-])cc1S(=O)(=O)N(CCO)/N=C/c1cnn2ccc(C#N)cc12"
49

----------
measurement target: Phosphatidylinositol 4,5-bisphosphate 3-kinase catalytic subunit delta isoform (Homo sapiens, UniProt O00329)
Sequence (O00329 whole entry, canonical isoform): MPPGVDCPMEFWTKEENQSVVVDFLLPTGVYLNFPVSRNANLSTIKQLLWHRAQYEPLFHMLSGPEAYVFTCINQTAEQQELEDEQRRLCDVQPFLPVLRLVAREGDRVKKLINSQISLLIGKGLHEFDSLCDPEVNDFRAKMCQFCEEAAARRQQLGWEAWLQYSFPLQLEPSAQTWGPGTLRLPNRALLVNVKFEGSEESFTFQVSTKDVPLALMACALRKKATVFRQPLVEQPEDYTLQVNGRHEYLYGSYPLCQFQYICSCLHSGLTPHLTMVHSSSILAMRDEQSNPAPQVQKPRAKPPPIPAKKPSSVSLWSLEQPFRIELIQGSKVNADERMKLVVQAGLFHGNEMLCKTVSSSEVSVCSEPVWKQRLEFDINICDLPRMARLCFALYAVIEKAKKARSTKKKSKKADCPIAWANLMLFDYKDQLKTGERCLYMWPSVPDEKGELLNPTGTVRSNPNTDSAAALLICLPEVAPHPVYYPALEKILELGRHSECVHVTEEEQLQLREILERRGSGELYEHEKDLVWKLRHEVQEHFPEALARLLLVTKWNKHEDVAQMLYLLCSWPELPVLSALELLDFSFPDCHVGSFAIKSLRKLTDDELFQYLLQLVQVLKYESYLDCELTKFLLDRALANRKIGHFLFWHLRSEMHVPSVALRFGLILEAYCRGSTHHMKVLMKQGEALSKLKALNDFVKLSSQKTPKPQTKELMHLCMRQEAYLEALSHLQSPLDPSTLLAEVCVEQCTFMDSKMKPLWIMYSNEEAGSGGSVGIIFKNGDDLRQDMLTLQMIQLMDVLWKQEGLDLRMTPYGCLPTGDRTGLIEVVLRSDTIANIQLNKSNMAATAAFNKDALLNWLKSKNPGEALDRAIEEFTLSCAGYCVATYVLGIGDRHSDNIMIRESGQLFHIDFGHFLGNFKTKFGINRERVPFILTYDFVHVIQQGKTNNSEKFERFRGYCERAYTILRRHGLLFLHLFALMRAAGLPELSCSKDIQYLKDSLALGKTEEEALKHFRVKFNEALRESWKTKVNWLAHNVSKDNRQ
experimental protocol: Inhibition of recombinant PI3K p110delta using L-alpha-phosphatidylinositol as substrate and [gamma33P]ATP after 60 mins by thin layer chromatographic technique
assay metric: pIC50
Give bare numbers, as −log10 of the molar value.

item smiles	pIC50
CN(/N=C/c1cnn2ccc(C#N)cc12)S(=O)(=O)c1cc([N+](=O)[O-])ccc1Cl	7.62

Field: pIC50. Fill in for each record below.
1. COC(=O)c1ccc(C)c(S(=O)(=O)N(C)/N=C/c2cnn3ccc(C#N)cc23)c1
2. Cc1ccc(C(F)(F)F)cc1S(=O)(=O)N(C)/N=C/c1cnn2ccc(C#N)cc12
3. CN(/N=C/c1cnn2ccc(C#N)cc12)S(=O)(=O)c1cccc([N+](=O)[O-])c1

[6.40, 7.46, 6.39]
